meta.source: patent US20200207857A1

System name: Recombinant protein Claudin 18.2
Sequence (chain, as listed by the source limits assumed, form in doubt): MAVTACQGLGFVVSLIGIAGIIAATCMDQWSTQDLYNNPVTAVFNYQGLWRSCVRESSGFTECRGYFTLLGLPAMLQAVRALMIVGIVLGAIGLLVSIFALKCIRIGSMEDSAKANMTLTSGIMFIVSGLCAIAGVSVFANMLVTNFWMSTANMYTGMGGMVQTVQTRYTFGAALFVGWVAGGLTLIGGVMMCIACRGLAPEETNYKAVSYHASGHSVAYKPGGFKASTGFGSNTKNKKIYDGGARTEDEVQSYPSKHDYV
Test details: ELISA on plate-coated recombinant Claudin 18.2, OD370; Kd table under the graph, no unit in the table, unit from the x axis log[antibody] nM
Recorded pKd by entry
# reply with the number alone; pKd is -log10 of concentration in mol/L

The cases that follow already have their pKd on record.
14D7 (antibody, V domains shown) VH: VQLQQSGGGLVQPGGSRKLSCAASGFTFSSFGMHWVRQAPEKGLEWVGYINSGSSTIYYADTVKGRFTISRDNPRNTLFLQMTSLRSEDTAMYYCASGAYYGNAMDYWGQGTSVTVSS VL: MTQDELSLTVTAGEKVTMSCKSSQSLLNSGNQRNYLTWYQQKPGQPPKLLIYWASTRESGVPNRFTGSGSGTDFTLTISSVQAVDLAVYYCQNNYFYPLTFGSGTKLELK = 10.00
7A10 (antibody, V domains shown) VH: VQLQESGAELVRPGTSVKVSCKASGYAFTNYLIEWVKQRPGQGLEWIGMINPGSGGTNYNEKFKGKATLTADKSSSTAYMQLSSLTSDDSAVYFCARGGFGNSFAYWGQGTLVTVSA VL: DIMMTQSPLSLTVTAGEKVTMSCKSSQSLLNSGNLKNYLTWYQQKPGQPPKLLTYWASTRDSGVPARFTGSGSGTDFTLTISSVQAEDLAVYYCQNDYFYPYTFGGGTKLEIK = 9.99
5H7 (antibody, V domains shown) VH: EVKLQESGPSLVKPFQSLSLTCTVTDYSITRGYNWHWIRQFPGNKLEWMGYIHYSGSTNYNPSLKSRISITRDTSKNQFFLQLNSVTTEDTATYYCARDYYGNSFAYWGQGTLVTVFC VL: DIVMTQDELSLTVTAREKVTMSCKSSQTLFNSGNQKNYLTWYQQKPGQPPKLLIYWASTRESGVPDRFTGSGSGTDFTLTISSVQAEDLAVYYCQNDYIFPYTFGGGTKLEIK = 9.87
1D5 (antibody, V domains shown) VH: VQLQESGAELVRPGTSVKVSCKASRYAFTNYLIEWVKQRPGQGLEWIGMINPGSGGTHYNEKFKVKATLTADKSSSTAYMQLNSLTSDDSAVYFCARGGFGNSFAYWGQGTLVTVSA VL: DIMMTQTPLSLTVTAGEKVTMSCKSSQSLLNGGNLKNYLTWYQQKPGQPPKLLTYWASTRESGVPARFTGSGSGTDFTLTISSVQAEDLAVYYCQNGYFYPYTFGGGTKLEIK = 10.26
Anti-CLDN 18.2-5C9 (antibody, V domains shown) VH: VKLQESGPELKKPGETVKISCKASGYTFTNYGMNWVKQAPGKGLKWMGWINMYTGEPTYADDFKGRFAFSLETSASTAYLQINNLKNEDTATYFCSRLYNGNSLDYWGQGTSLTVSS VL: DILLTQSPLSLTVTAGEKVTMSCKSSQSLLNSGNQKSYLTWYQQKPGQPPKLLLYWASTRESGVPARFTGSGSGTDFSLTISSVQTEDLAVYYCQNAYSFPFTFGSGTKLEIN = 10.16

With those in mind, consider the next binder.
If you can, please state the reported pKd value of 14B7 (antibody, V domains shown) VH: KVKLQESGPELVKPGASVKIPCKASGYTFTDYKMDWVKQSHGKSLEWIGDINPNNGGTIYNQKFKGKATLTVDRSSSTAYMELRSLTSEDTAVYYCARSYYGNSLAYWGQGTLVTVSA VL: DIVMTQDELSLTVTAGEKVTMSCKSSQSLLNSGNQKNYLTWYQQKPGLPPKLLIYWASTRESGVPDRFTGSGSGTDFTLTISSVQAEDLAVYYCQNNYIYPLTFGAGTKLELK .
9.70
